Tested on: SF-295
Assay: Cytotoxicity against human SF-295 cells assessed as reduction in cell viability incubated for 72 hrs by MTT assay
Format: functional, cell-based
Details: SF-295, 72 h
Task for the reader: assign each of the following compounds its reported pIC50.
Give bare numbers, as −log10 of the molar value.

INSERT INTO measurements (compound, assay_result) VALUES
  ('CC1(C)OC2=C(C(=O)C(=O)c3ccccc32)C1n1cc(CO)nn1 (stereo not given)', 5.47);

For every record below, what is its pIC50?
1. CC1(C)OC2=C(C(=O)C(=O)c3ccccc32)C1n1cc(-c2ccc(Nc3ccccn3)c3nsnc23)nn1 (stereo not given)
2. CC1(C)OC2=C(C(=O)C(=O)c3ccccc32)C1n1cc(C2(O)CCCCC2)nn1 (stereo not given)
3. CC1(C)CCC2=C(O1)c1ccccc1/C(=N/O)C2=O
4. O=C1C(=O)c2c(O)cccc2C2=C1CCC(c1ccc(Cl)cc1)O2 (stereo not given)

[A]
6.32
6.37
5.46
6.77

For every record below, what is its pIC50?
1. O=C1C(=O)c2c(O)cccc2C2=C1CCC(c1ccc(Br)cc1)O2 (stereo not given)
2. CC(C)(O)c1cn(C2C3=C(OC2(C)C)c2ccccc2C(=O)C3=O)nn1 (stereo not given)
3. O=C1C(=O)c2c(O)cccc2C2=C1CCC(c1ccccc1)O2 (stereo not given)
4. CC1(C)OC2=C(C(=O)C(=O)c3ccccc32)C1N=[N+]=[N-] (stereo not given)

[A]
[6.82, 5.55, 6.96, 5.92]

----------
Tested on: SF-295
Experiment: Cytotoxicity against human SF-295 cells assessed as reduction in cell viability incubated for 72 hrs by MTT assay
Type: functional, cell-based
Conditions: SF-295, 72 h
readout.label: pIC50
One number for each entry, as −log10 of the molar value.

INSERT INTO measurements (molecule, target, assay_result) VALUES
  ('CC1(C)OC2=C(C(=O)C(=O)c3ccccc32)C1Sc1ccccc1 (stereo not drawn)', 'SF-295', 6.05);

Now consider the entry below.
[Q] Would you mind telling me what pIC50 value was observed for O=C1C(=O)c2c(O)cccc2C2=C1CCC(c1ccc(F)cc1)O2 (stereo not drawn) ?
[A] 6.68

----------
Test system: COLO 205
Test: Cytotoxicity against human COLO 205 cells assessed as reduction in cell viability incubated for 72 hrs by MTT assay
Assay type: functional, cell-based
Conditions: COLO 205, 72 h
readout.label: IC50 (nM)
One number for each entry, in nM.

[Q] Would you mind telling me what IC50 value was observed for CC1(C)OC2=C(C(=O)C(=O)c3ccccc32)C1n1cc(-c2ccc(Nc3ccccn3)c3nsnc23)nn1 (stereo unspecified) ?
[A] 480

----------
Test system: MOLT-4
Experiment: Cytotoxicity against human MOLT-4 cells assessed as reduction in cell viability incubated for 72 hrs by MTT assay
Type: functional, cell-based
Details: MOLT-4, 72 h
readout.label: IC50 (µM)
One number for each entry, in µM.

Reference set (4 entries):
INSERT INTO results (compound, readout_label, assay_result) VALUES
  ('O=C1C(=O)c2ccccc2C2=C1CC(CI)O2 (stereo not given)', 'IC50', 1.38),
  ('CC1(C)OC2=C(C(=O)C(=O)c3ccccc32)C1n1cc(-c2ccc(Nc3ccccn3)c3nsnc23)nn1 (stereo not given)', 'IC50', 0.48),
  ('CC1(C)OC2=C(C(=O)C(=O)c3ccccc32)C1n1cc(-c2ccc([N+](=O)[O-])cc2)nn1 (stereo not given)', 'IC50', 0.74),
  ('COc1ccc(-c2cn(C3C4=C(OC3(C)C)c3ccccc3C(=O)C4=O)nn2)cc1 (stereo not given)', 'IC50', 0.94);

Now consider the entry below.
[Q] Would you mind telling me what IC50 value was observed for CC1(C)OC2=C(C(=O)C(=O)c3ccccc32)C1n1cc(-c2ccc(F)cc2)nn1 (stereo not given) ?
[A] 1.33

----------
System: SW-620
Experiment: Cytotoxicity against human SW-620 cells assessed as reduction in cell viability incubated for 72 hrs by MTT assay
Format: functional, cell-based
Details: SW-620, 72 h
readout.label: IC50 (nM)
Answers are plain numbers, in nM.

[Q] Would you mind telling me what IC50 value was observed for CC1(C)OC2=C(C(=O)C(=O)c3ccccc32)C1n1cc(-c2ccc(Nc3ccccn3)c3nsnc23)nn1 (stereo unspecified) ?
[A] 480

----------
Experiment: Selectivity index, ratio of IC50 for human L02 cells to IC50 for human HepG2 cells
Assay type: toxicity
Conditions: L02 cells versus HepG2 cells, read-out: Ratio IC50
readout.label: selectivity ratio

[Q] Would you mind telling me what selectivity ratio value was observed for O=C1C(=O)c2ccccc2C2=C1C1(C(=O)Nc3ccc(F)cc31)N1NN=NC1=N2 (stereo unspecified) ?
[A] 20.6

----------
Experiment: Elimination half life in human at 1.5 mg/kg, iv
Type: ADME, organism-based
Settings: in vivo, read-out: beta t1/2 (converted)
readout.label: half-life

[Q] Would you mind telling me what half-life value was observed for CC1(C)CCC2=C(O1)c1ccccc1C(=O)C2=O [LAPACHONE] ?
[A] 2.45 h

----------
Test system: SCC-9
Test: Cytotoxicity against human SCC-9 cells assessed as reduction in cell viability incubated for 72 hrs by alamar blue assay
Type: functional, cell-based
Conditions: SCC-9, 72 h
readout.label: IC50 (nM)
Answers are plain numbers, in nM.

[Q] Would you mind telling me what IC50 value was observed for CC1(C)OC2=C(CC1I)C(=O)C(=O)c1ccccc12 (stereo unspecified) ?
[A] 20

----------
Task for the reader: assign each of the following compounds its reported selectivity ratio.
Test: Selectivity index, ratio of IC50 for human PBMC cells to IC50 for human HL-60 cells
Format: toxicity
Details: PBMC cells versus HL-60 cells, read-out: Ratio IC50
Answers are plain numbers.

INSERT INTO measurements (compound, assay_result) VALUES
  ('CC1(C)OC2=C(CC1I)C(=O)C(=O)c1ccccc12 (configuration not stated)', 1690);

[Q] Would you mind telling me what selectivity ratio value was observed for CC1(C)CCC2=C(O1)c1ccccc1C(=O)C2=O ?
[A] 827

----------
Test system: HeLa
Experiment: Cytotoxicity against human HeLa cells assessed as reduction in cell viability incubated for 48 hrs by MTT assay
Type: functional, cell-based
readout.label: IC50

INSERT INTO results (compound, assay_result) VALUES
  ('O=C1C(=O)c2ccccc2C2=C1CC(O)CO2 (stereo not drawn)', '7.61 µM'),
  ('CC1COC2=C(C1)C(=O)C(=O)c1ccccc12 (stereo not drawn)', '0.92 µM');

Now consider the entry below.
[Q] Would you mind telling me what IC50 value was observed for CC1(C)COC2=C(C1)C(=O)C(=O)c1ccccc12 [RHINACANTHONE] ?
[A] 6.9 µM

----------
Experiment: Cytotoxicity against human ACP03 cells assessed as reduction in cell viability incubated for 72 hrs by alamar blue assay
Type: functional, cell-based
Conditions: ACP03, 72 h
readout.label: IC50

[Q] Would you mind telling me what IC50 value was observed for CC1(C)OC2=C(CC1I)C(=O)C(=O)c1ccccc12 (stereo unspecified) ?
[A] 0.02 µM

----------
Test system: UACC-62
Experiment: Cytotoxicity against human UACC-62 cells assessed as reduction in cell viability incubated for 72 hrs by MTT assay
Assay type: functional, cell-based
Conditions: UACC-62, 72 h
readout.label: pIC50
Answers are plain numbers, as −log10 of the molar value.

[Q] Would you mind telling me what pIC50 value was observed for CC1(C)OC2=C(C(=O)C(=O)c3ccccc32)C1n1cc(-c2ccc(Nc3ccccn3)c3nsnc23)nn1 (stereo unspecified) ?
[A] 6.32

----------
System: NCI-H358
Assay: Cytotoxicity against human NCI-H358 cells assessed as reduction in cell viability incubated for 72 hrs by MTT assay
Format: functional, cell-based
Conditions: NCI-H358, 72 h
readout.label: IC50 (nM)
Give bare numbers, in nM.

[Q] Would you mind telling me what IC50 value was observed for CC1(C)OC2=C(C(=O)C(=O)c3ccccc32)C1n1cc(-c2ccc(Nc3ccccn3)c3nsnc23)nn1 (stereo unspecified) ?
[A] 480

----------
Task for the reader: assign each of the following compounds its reported pIC50.
Test system: SNB-19
Experiment: Cytotoxicity against human SNB-19 cells assessed as reduction in cell viability incubated for 72 hrs by MTT assay
Type: functional, cell-based
Conditions: SNB-19, 72 h
Numbers only, as −log10 of the molar value.

Reference set (2 entries):
INSERT INTO assay_data (compound, assay_result) VALUES
  ('CC1(C)OC2=C(CC1[Se]c1ccc(F)cc1)C(=O)C(=O)c1ccccc12 (stereo not drawn)', 6.02),
  ('O=C1C(=O)c2ccccc2C2=C1CC(C[Se]c1cccs1)O2 (stereo not drawn)', 5.97);

Now consider the entry below.
[Q] Would you mind telling me what pIC50 value was observed for CC1(C)OC2=C(C(=O)C(=O)c3ccccc32)C1n1cc(C[Se]c2ccccc2)nn1 (stereo not drawn) ?
[A] 5.97
